# study.system: Cyclin-dependent kinase 2/G1/S-specific cyclin-E1 (Homo sapiens)
# assay.remarks: Kinase Inhibition Assay
# test.context: pH 7.6; 22 °C
outcome.measure: IC50 (nM)
Write the answer as a number in nM, unit excluded.

1) COc1ccc(-c2[nH]nc3c2C(=O)c2c(NC(=O)NNC(=O)c4ccc(C)cc4)cccc2-3)cc1 | 24

Assign IC50 to the following record: `COc1ccc(-c2[nH]nc3c2C(=O)c2c(NC(=O)NNC(=O)c4cc(Cl)ccc4Cl)cccc2-3)cc1`
36

Assign IC50 to the following record: `COc1ccc(-c2[nH]nc3c2C(=O)c2c(NC(=O)NNC(=O)c4cccc5ccccc45)cccc2-3)cc1`
53

Assign IC50 to the following record: `COc1ccc(-c2[nH]nc3c2C(=O)c2c(NC(=O)NNC(=O)c4ccccc4OC)cccc2-3)cc1`
14

Assign IC50 to the following record: `COc1ccc(-c2[nH]nc3c2C(=O)c2c(NC(=O)NNC(=O)c4cc(N)cc(N)c4)cccc2-3)cc1`
39

Assign IC50 to the following record: `COC(=O)NNC(=O)Nc1cccc2c1C(=O)c1c-2n[nH]c1-c1ccc(OC)cc1`
16
